experimental protocol: Turbidity, derived count rate of scattered light
Format: physicochemical
assay context: turbidity, Log10 of derived count rate of scattered light; Figure 3A source data
quantity measured: Log10 Count Rate

>  <substance>
QCKFKQFF

>  <Log10 Count Rate>
2.353

$$$$
>  <substance>
CKFKFQFNMW

>  <Log10 Count Rate>
3.613

$$$$
>  <substance>
RLRLTLC

>  <Log10 Count Rate>
2.0991

$$$$
>  <substance>
CKIKIQINMW

>  <Log10 Count Rate>
3.692

$$$$
>  <substance>
KIKIQINMAQ

>  <Log10 Count Rate>
3.768

$$$$

Field: Log10 Count Rate. Fill in for each record below.
1. KFKFQFN
2. KIKQIINM
3. HGEHGEHGE
4. CKIKQIINM
5. CKIKIQINMWQ
6. KIKIKIKI
7. KFKFQFNMWQ

Out:
1.705
3.395
2.532
3.957
3.274
2.191
2.866

Field: Log10 Count Rate. Fill in for each record below.
1. QCKAKAQANMWQ
2. CEIEIQI
3. QCKIKQII
4. RGDKIKIQINMWQ
5. KIKIQINMW

Out:
[2.631, 1.716, 2.479, 3.1914, 2.38]

Field: Log10 Count Rate. Fill in for each record below.
1. KFKFQFF
2. CEFEFQF
3. HGEHGE
4. RGEKIKIQINM
5. KIKIKIKIYYYY
6. KFKFEFEF
7. CKFKQFFNMWQ

Out:
1. 1.577
2. 2.565
3. 2.381
4. 2.774
5. 3.996
6. 3.34
7. 3.914

Measured values drawn from paper PMC10447463 for this set.
